target or system: T1, PD-1 (analyte of the SPR assay of Example 3) (human, UniProt Q15116 21-167, limits assumed)
T1 construct: also called human PD-1
T1 sequence (Q15116 21-167 limits assumed): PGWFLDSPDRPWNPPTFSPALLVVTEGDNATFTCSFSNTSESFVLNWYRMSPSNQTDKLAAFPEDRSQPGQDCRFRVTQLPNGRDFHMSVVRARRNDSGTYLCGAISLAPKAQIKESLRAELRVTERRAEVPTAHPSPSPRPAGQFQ
assay details: SPR (Biacore 8K), antibody captured by anti-human Fc, PD-1 as analyte
observation type: koff (s⁻¹)
Output spec: scalar in s⁻¹, unitless text.

Query :: Quick check: koff of VH6 + VL6 (antibody, human IgG1, kappa, V domains shown, Humanized full-length IgG expressed in HEK293; also called HC1 + LC2) VH: EVQLVESGGGLVQPGGSLRLSCAASGFTFSSYGMSWVRQAPGKRLEWVAIISGGGRDIYYLDSVKGRFTISRDNSKNTLYLQMNSLRAEDTAVYYCSSPIYDAYSFAYWGQGTLVTVSS VL: EIVLTQSPATLSVSPGERATLSCRASQTISNNLHWYHQKPGQAPRLLIKYASQSISGIPSRFSGSGSGTDFTLTISSLQSEDFAVYFCQQSYSWPLTFGGGTKLEIKR ?
Result :: 0.000127

Values were extracted from patent US20240239892A1.
